- Assay Notes: Quantitative High-Throughput drug screen in 47 multiple myeloma cell lines against the NCATS MIPE library collection: L363_DSMZ cell viability assay (AID 1918984); note: nearly all actives have a fitted effect of over 40% in size
- Reported Conditions: L363 myeloma viability, CellTiter-Glo ATP luminescence, 48 h; series mostly up to 45.8 µM
Records with an inconclusive call do not appear. The source made the active and inactive calls. Calls come from the whole dose curve; as a rule, active = well fitted cell-killing curve with a large enough effect; inconclusive = small, poorly fitted or top-dose-only effect, or effect the other way; inactive = no such curve, though single readings can be large or run the other way.
Give one outcome, nothing more. List: 1 for active, 0 for inactive

Observe how each entry below is paired with its result.
Cc1cnc(Nc2ccc(OCCN3CCCC3)cc2)nc1Nc1cccc(S(=O)(=O)NC(C)(C)C)c1    1
CCCc1nn(C)c2c(=O)[nH]c(-c3cc(S(=O)(=O)N4CCN(C)CC4)ccc3OCC)nc12    0
CCCCCCCc1ccc(CCc2cccc(O)c2C(=O)O)cc1    0
CCOC(=O)C1=C[C@]2(CC)CCCN3CCc4c(n1c1ccccc41)[C@@H]32    1
COc1ccc(-c2ccc3c(N4CCOCC4)nc(N4C[C@@H](C)O[C@@H](C)C4)nc3n2)cc1CO    1
c1ccc([C@H]2CN3CCSC3=N2)cc1    0
CNCc1ccc(-c2[nH]c3cc(F)cc4c3c2CCNC4=O)cc1    0
CO[C@@H]1[C@H](N(C)C(=O)c2ccccc2)C[C@H]2O[C@]1(C)n1c3ccccc3c3c4c(c5c6ccccc6n2c5c31)C(=O)NC4    1
Clc1cccc(Cl)c1NC1=NCCN1    0
O=c1n(CCCN2CCN(c3cccc(Cl)c3)CC2)nc2ccccn12    0

QUERY: Could you please tell me the result logged for CCCS(=O)(=O)Nc1ccc(F)c(C(=O)c2c[nH]c3ncc(-c4ccc(Cl)cc4)cc23)c1F in this assay?
RESULT: 0

QUERY: Please state the recorded outcome for this compound: O=C(Nc1cccnc1)N1CCC(Cc2cccc(Oc3ccc(C(F)(F)F)cn3)c2)CC1
RESULT: 1

QUERY: For this compound, state the assay outcome: NC(=O)c1cnccn1
RESULT: 0

QUERY: What classification did CN(C)c1ccc(Nc2nc(N)n(C(=O)c3c(F)cccc3F)n2)cc1 end up with in this test?
RESULT: 1

QUERY: So what was the verdict on COc1cc(Nc2ncc3c(n2)-c2ccc(Cl)cc2C(c2c(F)cccc2OC)=NC3)ccc1C(=O)O in this test?
RESULT: 0

QUERY: Recorded test call requested for CCc1cc(Nc2nccc(-c3c(-c4ccc(OC)c(C(=O)Nc5c(F)cccc5F)c4)nc4ccccn34)n2)c(OC)cc1N1CCC(N2CCN(S(C)(=O)=O)CC2)CC1
RESULT: 1

QUERY: Would you mind telling me which call this test gave O=C(O)CCc1ccc(NCc2cccc(Oc3ccccc3)c2)cc1 ?
RESULT: 0

QUERY: Dear colleague, could you share the recorded outcome for NCCCC(N)(C(=O)O)C(F)F (stereo unspecified) when you have a moment?
RESULT: 1

QUERY: Record request — test call for CC(C)(Sc1ccc(CCN(CCCCC2CCCCC2)C(=O)NC2CCCCC2)cc1)C(=O)O
RESULT: 0

QUERY: # lookup: test call for O=C1CCc2cc(OCCCCc3nnnn3C3CCCCC3)ccc2N1
RESULT: 0

QUERY: What did this assay record as the result for OCCn1cc(-c2cnc3nnn(Cc4ccc5ncccc5c4)c3n2)cn1 ?
RESULT: 0
